tested_target: PIK3CB;PIK3CG;PIK3CD;PIK3CA (human)
protocol_text: Enzyme Assay
Please respond with reported pIC50 for every item in the list.
Answers are plain numbers, as −log10 of the molar value.

compound: CS(=O)(=O)NCc1ccc(-n2nc(C(=O)N3CCOCC3)c3c2-c2ccccc2S(=O)(=O)C3)cc1
pIC50: 6.38
//
compound: O=C(c1nn(C2CCCN(CCN3CC[C@H](F)C3)C2)c2c1CS(=O)(=O)c1ccccc1-2)N1CCOCC1 (some centres not stated)
pIC50: 7.14
//
compound: O=C(c1nn(CC2CCCC2)c2c1CS(=O)(=O)c1ccccc1-2)N1CCOCC1
pIC50: 6.61

Parameters: items (list). Returns: pIC50 for each item.
1. Cc1cccc2c1S(=O)(=O)Cc1c(C(=O)N3CCOCC3)nn([C@H]3CCCN(CCN4CCOCC4)C3)c1-2
2. O=C(c1nn(C2CCCN(CCN3CC[C@@H](F)C3)C2)c2c1CS(=O)(=O)c1ccccc1-2)N1CCOCC1 (some centres not stated)

Solution:
7.31
7.47

Parameters: items (list). Returns: pIC50 for each item.
1. O=C(c1nn([C@@H]2CCCN(CC3CCOCC3)C2)c2c1CS(=O)(=O)c1ncccc1-2)N1CCOCC1
2. NC(=O)c1cccc2c1S(=O)(=O)Cc1c(C(=O)N3CCOCC3)nn(-c3ccccc3)c1-2
3. O=C(c1nn([C@H]2CCCN(CCn3ccnc3)C2)c2c1CS(=O)(=O)c1ccccc1-2)N1CCOCC1
4. COC1CCN(Cc2cccc(-n3nc(C(=O)N4CCOCC4)c4c3-c3ccccc3S(=O)(=O)C4)c2)CC1
5. Cc1ccc2c(c1)S(=O)(=O)Cc1c(C(=O)N3CCOCC3)nn(-c3ccccc3)c1-2
6. O=C(c1nn(-c2cccc(-c3ccccc3)c2)c2c1CS(=O)(=O)c1ccccc1-2)N1CCOCC1
7. O=C(CCN1CCC[C@H](n2nc(C(=O)N3CCOCC3)c3c2-c2ccccc2S(=O)(=O)C3)C1)N1CC(F)(F)C1

Solution:
1. 6.08
2. 5.10
3. 5.25
4. 6.62
5. 5.73
6. 6.12
7. 7.41

Parameters: items (list). Returns: pIC50 for each item.
1. O=C(c1nn(Cc2ccccn2)c2c1CS(=O)(=O)c1ccccc1-2)N1CCOCC1
2. O=C(c1nn([C@H]2CCCN(CCN3CCOCC3)C2)c2c1CS(=O)(=O)c1c(F)cccc1-2)N1CCOCC1
3. COCc1ccc(-n2nc(C(=O)N3CCOCC3)c3c2-c2ccccc2S(=O)(=O)C3)cc1
4. O=C(c1nn(CCO)c2c1CS(=O)(=O)c1ccccc1-2)N1CCOCC1
5. O=C(NC1CCOCC1)c1cccc(-n2nc(C(=O)N3CCOCC3)c3c2-c2ccccc2S(=O)(=O)C3)c1
6. COc1cccc(-n2nc(C(=O)N3CCOCC3)c3c2-c2ccccc2S(=O)(=O)C3)c1

Solution:
[5.40, 7.80, 6.18, 6.18, 5.90, 5.88]
